Data origin, for the record: patent US20230192831A1

# targetEntity: recombinant human GREM1 (hGREM1-His; C-terminal 10His tagged, R&D, #5190-GR) (human) (UniProt O60565)
# Sequence (O60565 other isoform, or with tags, fused parts or gaps limits assumed, form in doubt): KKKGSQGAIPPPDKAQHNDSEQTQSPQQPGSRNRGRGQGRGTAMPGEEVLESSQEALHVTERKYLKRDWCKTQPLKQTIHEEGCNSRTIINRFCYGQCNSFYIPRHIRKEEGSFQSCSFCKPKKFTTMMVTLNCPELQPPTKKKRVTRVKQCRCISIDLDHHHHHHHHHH
# measurementDescription: cell-based or functional assay
outcomeMeasure: IC50 [M], W-20-17/BRE-luc luciferase bioassay, 100 pM hBMP4 and 10 nM hGREM1-His (M)
Numbers only, in M.

Solved cases (2 shown):
binder: H4H6232P (antibody, human IgG4, V domains shown) VH: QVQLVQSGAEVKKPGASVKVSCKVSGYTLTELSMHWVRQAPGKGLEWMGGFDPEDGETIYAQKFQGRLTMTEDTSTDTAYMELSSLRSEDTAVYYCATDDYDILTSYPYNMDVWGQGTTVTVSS VL: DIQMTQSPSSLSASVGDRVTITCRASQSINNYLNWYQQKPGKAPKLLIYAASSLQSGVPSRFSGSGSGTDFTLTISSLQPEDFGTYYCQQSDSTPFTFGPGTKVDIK
readoutUnit: M
measuredResult: 7.8e-10

binder: H4H6251P (antibody, human IgG4, V domains shown) VH: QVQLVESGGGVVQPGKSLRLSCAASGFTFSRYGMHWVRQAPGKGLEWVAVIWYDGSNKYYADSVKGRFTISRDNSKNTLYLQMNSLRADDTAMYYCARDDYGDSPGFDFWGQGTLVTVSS VL: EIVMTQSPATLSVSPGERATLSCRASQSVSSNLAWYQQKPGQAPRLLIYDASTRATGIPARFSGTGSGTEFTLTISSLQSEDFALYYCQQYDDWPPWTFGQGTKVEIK
readoutUnit: M
measuredResult: 6.3e-10

Could you now look at the following binder, please?
Input: Recorded IC50 [M], W-20-17/BRE-luc luciferase bioassay, 100 pM hBMP4 and 10 nM hGREM1-His for H4H6245P (antibody, human IgG4, V domains shown) VH: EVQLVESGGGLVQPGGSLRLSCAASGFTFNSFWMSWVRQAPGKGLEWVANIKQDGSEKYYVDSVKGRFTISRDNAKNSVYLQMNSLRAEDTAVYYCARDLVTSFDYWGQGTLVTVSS VL: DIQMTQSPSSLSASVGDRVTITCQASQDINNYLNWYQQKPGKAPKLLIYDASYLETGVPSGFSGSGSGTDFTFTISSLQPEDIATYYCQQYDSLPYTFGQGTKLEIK , please?
Output: 5.3e-10
